target.or.test.system: T1, recombinant biotinylated human PAR2 extracellular domain (residues 1-75), N-terminal AviTag, C-terminal Flag … (human, UniProt P55085 26-75, biotin on the AviTag (enzymatic biotinylation))
T1 construct: also called Bio-human-PAR2 ECD; human PAR2 ECD; not shown: N-terminal AviTag (Avidity LLC); C-terminal Flag and poly Histidine tags
T1 sequence (P55085 26-75): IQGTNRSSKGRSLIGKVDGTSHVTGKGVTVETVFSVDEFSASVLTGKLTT
procedure.text: HTRF competition with Par0067 IgG, pH 7.4, scFv
Listed below: IC50 values for each entry.
Write the value in nM as a bare number.

Consider the following illustrative entries.
binder	IC50 [nM]
PaB670092 scFv (scFv, V domains shown, purified scFv; also called ZZ1ODR-G11) VH: EVQLLESGGGLVQPGGSLRLSCAASGFTFSSYAMNWVRQAPGKGLEWVSTISYHGSHISYHDSHHGRFTISRDNSKNTLYLQMNSLRAEDTAVYYCARINNDPMDVWGQGTLVTVSS VL: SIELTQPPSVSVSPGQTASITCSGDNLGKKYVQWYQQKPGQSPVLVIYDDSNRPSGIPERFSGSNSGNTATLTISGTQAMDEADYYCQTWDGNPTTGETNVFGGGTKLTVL	41.1
PaB670071 scFv (scFv, V domains shown, purified scFv; also called ZZ1L3F-A02) VH: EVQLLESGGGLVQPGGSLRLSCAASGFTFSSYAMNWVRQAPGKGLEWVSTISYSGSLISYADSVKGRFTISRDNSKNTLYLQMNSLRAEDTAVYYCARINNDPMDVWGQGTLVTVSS VL: SIELTQPPSVSVSPGQTASITCSGDNLGKKYVQWYQQKPGQSPVLVIYDDSNRPSGIPERFSGSNSGNTATLTISGTQAMDEADYYCHTWHHHHHTGEHNHFGGGTKLTVL	101

Next:
-- ask If you can, please state the reported IC50 value of PaB670094 scFv (scFv, V domains shown, purified scFv; also called ZZ1ODS-B08) VH: EVQLLESGGGLVQPGGSLRLSCAASGFTFSSYAMNWVRQAPGKGLEWVSTISYHGHHISHADHHKGRFTISRDNSKNTLYLQMNSLRAEDTAVYYCARINNDPMDVWGQGTLVTVSS VL: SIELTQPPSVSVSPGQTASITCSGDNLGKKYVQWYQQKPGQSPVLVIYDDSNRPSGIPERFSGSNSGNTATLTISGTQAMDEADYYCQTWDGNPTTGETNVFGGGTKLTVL .
-- reply 72.5
